Consider the following molecules; for each one, report its EX(nm).
Test: Fluorescence excitation/emission of the styryl dye library compounds
Type: physicochemical
Settings: EX/EM peak no. 1

Some entries whose results are on file:
{"columns": ["smiles_entry", "EX(nm)"],
 "data": [
  ["COc1ccc2c(ccc(/C=C/c3ccc(NC(C)=O)cc3)[n+]2C)c1.[I-]", "430(broad) nm"],
  ["C[n+]1ccc(C=Cc2ccc3ccccc3c2)c2ccccc21.[I-]", "360-470 nm"],
  ["Cc1cccc(C=Cc2cccc3ccccc23)[n+]1C.[I-]", "400(broad) nm"]
]}

Please give EX(nm), item by item, for the list that follows.
1. C[n+]1ccc(C=Cc2ccc(OCc3ccccc3)c(OCc3ccccc3)c2)cc1.[I-]
2. C[n+]1c(/C=C/c2ccccc2)ccc2ccccc21.[I-]
3. Cc1cccc(C=Cc2ccc3ccccc3c2)[n+]1C.[I-]
4. Cc1ccc[n+](C)c1C=CC=Cc1ccc(N(C)C)cc1.[I-]
5. CN(C)c1ccc(C=Cc2ccc3ccccc3[n+]2C)c2ccccc12.[I-]
6. Cc1ccnc(-c2cc(C=CC=Cc3ccccc3)cc[n+]2C)c1.[I-]
7. C[n+]1ccc(C=Cc2ccccc2[N+](=O)[O-])c2ccccc21.[I-]

Response:
330-460 nm
480(weak) nm
360-470 nm
470(broad) nm
500(broad) nm
340-420 nm
490-540 nm

All figures here come from patent US20050054006A1.
